Data credit: ChEMBL document CHEMBL2203026

Target: Metabotropic glutamate receptor 2 (Homo sapiens, UniProt Q14416)
Sequence (Q14416 whole entry): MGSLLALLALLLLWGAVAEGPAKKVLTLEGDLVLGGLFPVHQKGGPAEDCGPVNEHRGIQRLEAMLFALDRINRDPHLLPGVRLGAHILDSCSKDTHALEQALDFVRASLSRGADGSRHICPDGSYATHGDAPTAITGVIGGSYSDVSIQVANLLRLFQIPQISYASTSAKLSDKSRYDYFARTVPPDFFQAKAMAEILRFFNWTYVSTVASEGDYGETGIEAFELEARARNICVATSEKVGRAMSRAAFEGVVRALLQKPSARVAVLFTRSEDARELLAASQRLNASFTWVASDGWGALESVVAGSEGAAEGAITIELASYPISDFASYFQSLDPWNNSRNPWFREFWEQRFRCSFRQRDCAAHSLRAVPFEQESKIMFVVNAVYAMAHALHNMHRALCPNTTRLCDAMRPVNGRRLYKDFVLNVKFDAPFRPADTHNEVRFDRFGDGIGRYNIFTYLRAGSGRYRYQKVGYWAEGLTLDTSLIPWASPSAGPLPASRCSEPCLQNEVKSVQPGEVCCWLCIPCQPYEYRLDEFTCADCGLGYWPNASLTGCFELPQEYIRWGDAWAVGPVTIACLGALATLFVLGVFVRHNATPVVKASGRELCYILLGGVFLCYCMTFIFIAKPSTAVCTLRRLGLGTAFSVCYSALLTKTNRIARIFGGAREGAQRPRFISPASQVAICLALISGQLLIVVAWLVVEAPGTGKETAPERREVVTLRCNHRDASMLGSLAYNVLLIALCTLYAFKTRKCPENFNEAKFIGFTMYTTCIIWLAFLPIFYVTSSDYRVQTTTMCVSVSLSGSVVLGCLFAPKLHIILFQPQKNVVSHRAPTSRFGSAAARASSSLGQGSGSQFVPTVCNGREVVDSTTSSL
Assay: Negative allosteric modulation of human mGlu2 expressed in AV-12 cells in presence of glutamate EC90 concentration by FLIPR assay
Assay type: cell-based, AV12
pIC50: −log10 of the molar value.
parameter-measured: pIC50

INSERT INTO measurements (mol_smiles, parameter_measured, assay_value) VALUES
  ('Clc1ccc(CN[C@H]2CCN(c3ncc(Br)cn3)C2)c(Cl)c1', 'pIC50', '< 4.90');

----------
Target: Metabotropic glutamate receptor 3 (Homo sapiens, UniProt Q14832)
Sequence (Q14832 whole entry): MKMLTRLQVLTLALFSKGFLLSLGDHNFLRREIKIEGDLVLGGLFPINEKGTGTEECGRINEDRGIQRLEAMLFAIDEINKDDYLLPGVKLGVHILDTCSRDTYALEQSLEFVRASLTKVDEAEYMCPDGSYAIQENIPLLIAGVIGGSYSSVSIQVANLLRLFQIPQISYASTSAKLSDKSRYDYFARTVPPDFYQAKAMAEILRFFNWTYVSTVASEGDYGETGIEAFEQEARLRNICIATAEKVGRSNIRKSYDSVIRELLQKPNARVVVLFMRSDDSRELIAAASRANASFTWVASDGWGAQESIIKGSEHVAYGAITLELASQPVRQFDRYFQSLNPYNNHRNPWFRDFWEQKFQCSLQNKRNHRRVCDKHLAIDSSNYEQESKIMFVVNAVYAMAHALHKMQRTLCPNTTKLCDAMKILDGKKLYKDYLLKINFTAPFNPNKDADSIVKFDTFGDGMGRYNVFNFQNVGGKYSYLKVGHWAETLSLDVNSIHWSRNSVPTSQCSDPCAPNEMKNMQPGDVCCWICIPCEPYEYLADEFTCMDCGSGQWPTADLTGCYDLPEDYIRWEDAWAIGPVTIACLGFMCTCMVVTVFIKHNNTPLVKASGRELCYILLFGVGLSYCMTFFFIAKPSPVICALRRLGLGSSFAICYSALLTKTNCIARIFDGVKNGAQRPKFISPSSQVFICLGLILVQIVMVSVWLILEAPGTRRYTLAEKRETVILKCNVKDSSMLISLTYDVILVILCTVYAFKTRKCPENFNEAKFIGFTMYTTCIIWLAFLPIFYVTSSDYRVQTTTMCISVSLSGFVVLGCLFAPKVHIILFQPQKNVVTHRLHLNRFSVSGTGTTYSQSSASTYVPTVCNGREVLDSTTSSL
Experiment: Negative allosteric modulation of mGlu3 assessed as inhibition of glutamate-induced calcium mobilization in presence of Galpha15 by cell based assay
Format: functional
parameter-measured: IC50 (nM)

INSERT INTO results (mol_smiles, assay_value) VALUES
  ('COc1ccc(C#Cc2ccc(C(=O)N3CCC[C@@H](CO)C3)cc2)cc1', 660);
